experiment: Plasma vaniprevir pharmacokinetics
Assay type: in vivo, human
settings: human, plasma, oral, 600 mg, C12 h, plasma trough, day 4, 600 mg twice daily, n=3, arithmetic mean ±SD [CV%]
measured-attribute: concentration at 12 h (nM)
# number only, unit nM dropped from output

Ask: What concentration at 12 h value was documented for this molecule, CC[C@@H]1C[C@]1(NC(=O)[C@@H]1C[C@@H]2CN1C(=O)[C@H](C(C)(C)C)NC(=O)OCC(C)(C)CCCCc1cccc3c1CN(C3)C(=O)O2)C(=O)NS(=O)(=O)C1CC1 [vaniprevir] ?
Result: 1110

###

experiment: Plasma vaniprevir pharmacokinetics
Format: in vivo, human
settings: human, plasma, oral, 300 mg
measured-attribute: Tmax (h)
Report the value in h with no unit label.

Ask: Suppose we examine the molecule CC[C@@H]1C[C@]1(NC(=O)[C@@H]1C[C@@H]2CN1C(=O)[C@H](C(C)(C)C)NC(=O)OCC(C)(C)CCCCc1cccc3c1CN(C3)C(=O)O2)C(=O)NS(=O)(=O)C1CC1 [vaniprevir] ; what Tmax value has been reported?
Result: 2
